Assay: Inhibition of Electron transport protein complex 1 in bovine heart submitochondrial particles assessed as NADH ubiquinone oxidoreductase oxidase activity by spectrophotometric analysis in presence of exogenous ubiquinone 1
Set-up: species or system Bos taurus
Attribute Measured: IC50 (µM)
Answers are plain numbers, in µM.

{"Molecule": "CCCCc1ccc(OCCC#CC[C@@H](O)[C@H]2CC[C@H]([C@H]3CC[C@H]([C@H](O)CC#CCCOc4ccc(CCCC)cc4)O3)O2)cc1", "IC50, µM": 1.7}
{"Molecule": "CCCCCCCC#CC[C@@H](O)[C@H]1CC[C@H]([C@H]2CC[C@H]([C@H](O)CC#CCCCCCCC)O2)O1", "IC50, µM": 0.048}

Consider now this further molecule.
Q: What value of measured IC50 is listed for CCCCCCCCCC[C@@H](O)[C@H]1CC[C@H]([C@H]2CC[C@H]([C@H](O)CCCCCCCCCC)O2)O1 [dleta-lac-Acetogenin] ?
Result: 10.4
